Data origin, for the record: patent US20210246166A1

human MASP1 IC50 values by entry
TEST TARGET: T1, Recombinant human MASP1 enzyme (fragment corresponding to amino acids 297-699, C-terminal His Tag) (human, UniProt P48740 297-699)
T1 sequence: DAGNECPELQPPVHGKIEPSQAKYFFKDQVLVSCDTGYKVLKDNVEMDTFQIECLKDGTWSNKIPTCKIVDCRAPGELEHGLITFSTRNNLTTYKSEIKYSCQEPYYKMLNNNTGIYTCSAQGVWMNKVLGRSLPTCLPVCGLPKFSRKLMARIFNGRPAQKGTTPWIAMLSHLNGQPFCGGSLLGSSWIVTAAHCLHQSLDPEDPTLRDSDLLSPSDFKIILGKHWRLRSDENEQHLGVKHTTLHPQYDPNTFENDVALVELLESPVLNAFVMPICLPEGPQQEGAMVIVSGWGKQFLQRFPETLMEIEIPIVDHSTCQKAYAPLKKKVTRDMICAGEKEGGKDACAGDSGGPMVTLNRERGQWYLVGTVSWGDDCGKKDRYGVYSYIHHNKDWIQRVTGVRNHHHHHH
ASSAY METHOD TEXT: cell-based or functional assay
Bridge positions count the residues as written; N and C are the ends. Square brackets hold non-standard residues; d marks the D form. Ends that are not written are not given here. * marks the point of attachment. tBuAla = CC(C)(C)C[C@H](N)C(=O)O; Chg = N[C@H](C(=O)O)C1CCCCC1; NMePro = CN1CCC[C@H]1C(=O)*
MEASURED QUANTITY: human MASP1 IC50 (nM)

[[record]]
binder = "AICSRSLPP[Chg]CIPD-OH (disulfide 3-11; N-terminus assumed; SMILES CC[C@H](C)[C@H](NC(=O)[C@H](C)N)C(=O)N[C@H]1CSSC[C@@H](C(=O)N[C@H](C(=O)N2CCC[C@H]2C(=O)N[C@@H](CC(=O)O)C(=O)O)[C@@H](C)CC)NC(=O)[C@H](C2CCCCC2)NC(=O)[C@@H]2CCCN2C(=O)[C@@H]2CCCN2C(=O)[C@H](CC(C)C)NC(=O)[C@H](CO)NC(=O)[C@H](CCCNC(=N)N)NC(=O)[C@H](CO)NC1=O) [AIC+SRSLPP-(Chg)-C+IPD-OH]"
measured_quantity = "human MASP1 IC50"
experimental_result = 6.5

[[record]]
binder = "[NMePro]ICSRS[tBuAla]PPICIPD-NH2 (disulfide 3-11; SMILES CC[C@H](C)[C@H](NC(=O)[C@@H]1CCCN1C)C(=O)N[C@H]1CSSC[C@@H](C(=O)N[C@H](C(=O)N2CCC[C@H]2C(=O)N[C@@H](CC(=O)O)C(N)=O)[C@@H](C)CC)NC(=O)[C@H]([C@@H](C)CC)NC(=O)[C@@H]2CCCN2C(=O)[C@@H]2CCCN2C(=O)[C@H](CC(C)(C)C)NC(=O)[C@H](CO)NC(=O)[C@H](CCCNC(=N)N)NC(=O)[C@H](CO)NC1=O) [((N-Me)P)-IC+SRS-((tBu)A)-PPIC+IPD-NH2]"
measured_quantity = "human MASP1 IC50"
experimental_result = 9.3

